I'd be grateful if you could share measured IC50, inhibition of pSTAT5 for these entries.
Target: T1, human Type 1 mutCALR on Ba/F3 cells expressing MPL and Type 1 mutCALR (human)
T1 chain: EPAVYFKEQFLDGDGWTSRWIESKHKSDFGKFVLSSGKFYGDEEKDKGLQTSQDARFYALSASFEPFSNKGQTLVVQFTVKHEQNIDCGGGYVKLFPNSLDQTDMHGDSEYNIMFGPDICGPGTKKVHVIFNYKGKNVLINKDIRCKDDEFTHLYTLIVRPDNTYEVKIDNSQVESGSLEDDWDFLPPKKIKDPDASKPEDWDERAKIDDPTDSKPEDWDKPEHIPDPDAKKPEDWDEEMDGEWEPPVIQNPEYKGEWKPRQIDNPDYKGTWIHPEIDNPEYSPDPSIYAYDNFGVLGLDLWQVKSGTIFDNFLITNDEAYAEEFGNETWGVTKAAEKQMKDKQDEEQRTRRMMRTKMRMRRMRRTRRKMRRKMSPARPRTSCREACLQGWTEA
Assay: cell-based or functional assay
One number for each entry, in µg/mL.

{"Binder": "anti-mutCALR antibody clone 8 (antibody, human IgG1, lambda, V domains shown, human IgG1) VH: QVQLVQSGAEVKKPGSSVKVSCKVSGYTLTELSMQWVRQAPGKGLEWMGGFDPDDGETMYAEKFQGRLTVTEDTSTDTVYMELRSLTSEDTALYFCATSPGYDFFDYWGQGTLVTVSS VL: SYELTQPPSVSVAPGQTARITCGGNNIGSKSVHWYQQKPGQAPVLVVYDDSDRPSGIPERFSGSNSGRTATLTISRVEAGDEADYHCQVWDSSSDHLVFGGGTKLTVLG", "Recorded Number": 0.043}

May I ask what IC50, inhibition of pSTAT5 has been recorded for anti-mutCALR antibody clone 37 (antibody, human IgG1, lambda, V domains shown, human IgG1) VH: QVQLVQSGAEVKKPGATVKISCKVSGYSFTDYFIHWVQQAPGKGLAWVGLVDPEDGETIYAEKFQGRVTITADTSTDTAYMELSSLRSEDTAVYYCATPGGILTDPDAFDIWGQGTMVTVSS VL: QSALTQPASVSGSPGQSITISCTGTSSDVGGYNYVSWYQQHPGKAPKLMIYDVSNRPSGVSNRFSGSKSGNTASLTISGLQAEDEADYYCSSYTSSSTFYVFGTGTKVTVLG ?
0.039
